- Tested on: Rattus norvegicus
- measurement description: Tested for % inhibition in carrageenan-induced rat paw adema after peroral administration of 100 mg/kg dose at 2 hours
- Format: functional
- assay setup: route oral
Please enter True where inhibition in vivo at 100 mg/kg is greater than or equal to 60%, and False where it is lower.

These recorded examples may help you get a feel for the data.
compound=c1ccc(Nc2nnc(-c3nsc4ccccc34)o2)cc1 assay_target="Rattus norvegicus" assigned_category=False
compound=c1ccc(Nc2nnc(-c3nsc4ccccc34)s2)cc1 assay_target="Rattus norvegicus" assigned_category=False
compound=CCc1nnc(-c2nsc3ccccc23)s1 assay_target="Rattus norvegicus" assigned_category=False
compound="CC(C)Cc1ccc(C(C)C(=O)O)cc1 (configuration not stated) [IBUPROFEN]" assay_target="Rattus norvegicus" assigned_category=True
compound=CNc1nnc(-c2nsc3ccccc23)o1 assay_target="Rattus norvegicus" assigned_category=False

Q) State whether the measured inhibition in vivo at 100 mg/kg reaches 60%, counting equality as reaching it, for `COc1ccc(Nc2nnc(-c3nsc4ccccc34)o2)cc1`
A) False
